Biological target: T1, 4H118-bH
T1 chain: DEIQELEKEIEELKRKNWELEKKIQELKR
Test: two-hybrid library CCNG1;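 note: natural log of median RNA to DNA barcode read ratio; higher means stronger binding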
readout_name: interaction score

Solved cases below.
**Query** Returns the measured interaction score for the input binder. Input: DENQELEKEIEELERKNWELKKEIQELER [4H1081-bH]
**Result** -1.07

**Query** Returns the measured interaction score for the input binder. Input: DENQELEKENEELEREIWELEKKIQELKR [4H1158-bH]
**Result** 0.729

(I) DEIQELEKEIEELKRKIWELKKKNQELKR [4H112-bH]
(II) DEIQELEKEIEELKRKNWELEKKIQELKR [4H118-bH]
**Query** Parameter metric = interaction score. Return the lower-valued option from I and II . Answer with the label corresponding to your selection.
**Result** I
(I: 0.444, II: 1.75)
